# Tested on: L1210
# Assay Details: Activity against cultured L1210 leukemic cells was determined in vitro, after 48 hr of incubation. Compound dose that causes 50 % inhibition was reported
# Assay type: functional
# Test Parameters: Mus musculus, L1210, 48 h; read-out: ID50 (the source's name)
pIC50: −log10 of the molar value.
Recorded pIC50, one value per entry.
Readout Name: pIC50

                                   molecule  readout_value
0                 Cc1cccc(/C=N/N=C(\N)NO)n1           4.38
1                    N/C(=N\O)N/N=C/c1cccs1           4.47
2  N=C(N)NO.O=S(=O)(O)O [HYDROXYGUANIDINE SULFATE]           4.23
3                    NC(=O)NO [HYDROXYUREA]           4.22
4                   N/C(=N\O)N/N=C/C1CCCCC1           4.67
5       NC(/N=N/c1c(O)[nH]c2ccc(F)cc12)=N\O           4.32
6                                 N=C(NN)NO           3.90

---

Recorded ID16, one value per entry.
# Test system: L1210
# Assay Details: Activity against cultured L1210 leukemic cells was determined in vitro, after 48 h of incubation. Compound dose that causes 16 % inhibition was reported
# Type: functional, Mus musculus
Readout Name: ID16 (µM)

                                    compound  readout_value
 0                   N/C(=N\O)N/N=C/C1CCCCC1           9.34
 1  N=C(N)NO.O=S(=O)(O)O [HYDROXYGUANIDINE SULFATE]           95.8
 2                    N/C(=N\O)N/N=C/c1cccs1           81.7
 3             CCCCOc1cccc(/C=N/N=C(\N)NO)c1              3
 4                 Cc1cccc(/C=N/N=C(\N)NO)n1          19.76
 5                 COc1cccc(/C=N/NC(=N)NO)c1            4.2
 6                    Cc1ccsc1/C=N/N=C(/N)NO          16.89
 7           CCCCCCOc1cccc(/C=N/N=C(\N)NO)c1           2.96
 8                N/C(=N\O)N/N=C/c1cccc(I)c1           4.07
 9                    NC(=O)NO [HYDROXYUREA]           1.99
10                                 N=C(NN)NO           57.1
11                    N/C(=N/N=C/c1ccccn1)NO            4.4
12       NC(/N=N/c1c(O)[nH]c2ccc(F)cc12)=N\O           17.8
13         N/C(=N\O)N/N=C/c1cccc(C(F)(F)F)c1           2.35

---

# Organism: Gallus gallus
# Assay Details: Compound dose that inhibits transformation of chick embryo fibroblasts by Rous sarcoma virus, after 15 hr of incubation was determined in vitro. Compound dose that causes 84 % inhibition was reported.
# Type: functional
Recorded ID84, one value per entry.
Readout Name: ID84 (µM)

>>> df
                                    compound  readout_name  unit_name  readout_value
 0           CCCCCCOc1cccc(/C=N/N=C(\N)NO)c1          ID84         µM          54.56
 1                   N/C(=N\O)N/N=C/C1CCCCC1          ID84         µM           60.4
 2                    N/C(=N\O)N/N=C/c1cccs1          ID84         µM          38.04
 3                    Cc1ccsc1/C=N/N=C(/N)NO          ID84         µM           57.9
 4                 Cc1cccc(/C=N/N=C(\N)NO)n1          ID84         µM          361.3
 5                                 N=C(NN)NO          ID84         µM           2438
 6       NC(/N=N/c1c(O)[nH]c2ccc(F)cc12)=N\O          ID84         µM          62.25
 7         N/C(=N\O)N/N=C/c1cccc(C(F)(F)F)c1          ID84         µM          40.61
 8             CCCCOc1cccc(/C=N/N=C(\N)NO)c1          ID84         µM          38.96
 9                N/C(=N\O)N/N=C/c1cccc(I)c1          ID84         µM          13.33
10                 COc1cccc(/C=N/NC(=N)NO)c1          ID84         µM          44.06
11  N=C(N)NO.O=S(=O)(O)O [HYDROXYGUANIDINE SULFATE]          ID84         µM          725.8
12                    N/C(=N/N=C/c1ccccn1)NO          ID84         µM           7.55

---

# Assay Details: Compound dose that causes lethality by 50 %, was tested in mice
# Assay type: ADME, organism-based
# Test Parameters: mouse, in vivo
Readout Name: LD50 (mg/kg)

In [3]: df
Out[3]:
                sample_smiles  readout_value
0      N/C(=N/N=C/c1ccccn1)NO            315
1  N/C(=N\O)N/N=C/c1cccc(I)c1            190

---

Recorded IC50, one value per entry.
# Tested on: L1210
# Assay Details: Activity against cultured L1210 leukemic cells was determined in vitro, after 48 hr of incubation. Compound dose that causes 50 % inhibition was reported
# Format: functional
# Test Parameters: Mus musculus, L1210, 48 h; read-out: ID50 (the source's name)
Readout Name: IC50 (µM)

>>> print(df.to_string())
                       sample_smiles  system_tested  unit_name  readout_value
0      CCCCOc1cccc(/C=N/N=C(\N)NO)c1          L1210         µM           8.54
1         N/C(=N\O)N/N=C/c1cccc(I)c1          L1210         µM           12.5
2             N/C(=N/N=C/c1ccccn1)NO          L1210         µM           10.9
3             Cc1ccsc1/C=N/N=C(/N)NO          L1210         µM           33.2
4  N/C(=N\O)N/N=C/c1cccc(C(F)(F)F)c1          L1210         µM           15.1
5          COc1cccc(/C=N/NC(=N)NO)c1          L1210         µM             16
6    CCCCCCOc1cccc(/C=N/N=C(\N)NO)c1          L1210         µM            7.8
